biological target: human 5-HT2C receptor (Homo sapiens, UniProt P28335, I156V/I160V/N158S); assay: cell-based
Sequence (P28335 33-458 I156V/N158S/I160V limits assumed): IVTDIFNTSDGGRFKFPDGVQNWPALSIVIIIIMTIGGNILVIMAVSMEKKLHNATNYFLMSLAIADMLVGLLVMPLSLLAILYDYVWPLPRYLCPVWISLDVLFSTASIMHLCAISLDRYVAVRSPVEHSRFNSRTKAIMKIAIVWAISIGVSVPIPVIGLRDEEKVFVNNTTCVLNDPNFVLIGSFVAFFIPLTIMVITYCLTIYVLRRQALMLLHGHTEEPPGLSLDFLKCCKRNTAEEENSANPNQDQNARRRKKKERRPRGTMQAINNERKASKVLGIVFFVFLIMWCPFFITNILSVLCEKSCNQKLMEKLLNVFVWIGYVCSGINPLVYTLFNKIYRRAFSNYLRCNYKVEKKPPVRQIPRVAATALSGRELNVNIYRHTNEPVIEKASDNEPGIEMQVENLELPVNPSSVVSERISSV
Assign labels as follows, please: Condition met for EC50 below 200 nM; Condition not met for EC50 equal to or exceeding 200 nM.

molecule	categoryLabel
O=C(C1CN(c2c3c(nc4ccnn24)CCNCC3)C1)N1CCC(c2cccc(F)c2)CC1	Condition met
O=C(C1CN(c2c3c(nc4ccnn24)CCNCC3)C1)N1CCc2cccc(Br)c2C1	Condition met
N#CC1CN(c2c3c(nc4ccnn24)CCNCC3)C1	Condition not met
CC(C)N1CCN(C(=O)C2CN(c3c4c(nc5ccnn35)CCN(C)CC4)C2)CC1	Condition met
O=C(C1CN(c2c3c(nc4ccnn24)CCNCC3)C1)N1CCC(c2ccccc2)CC1	Condition met
c1cc(OC2CN(c3c4c(nc5ccnn35)CCNCC4)C2)c2ccncc2c1	Condition met
CC1CCCC(NC(=O)C2CN(c3c4c(nc5ccnn35)CCNCC4)C2)C1 (centres unmarked)	Condition met
COc1cc(Br)ccc1OC1CN(c2c3c(nc4ccnn24)CCNCC3)C1	Condition met
O=C(C1CN(c2c3c(nc4ccnn24)CCNCC3)C1)N1CC=CCC1	Condition met
CCCN(C)C(=O)C1CN(c2c3c(nc4ccnn24)CCNCC3)C1	Condition not met
CN1CCc2nc3ccnn3c(N3CC(C(=O)N4CC[C@H]5CNC[C@H]54)C3)c2CC1	Condition not met
FC(F)(F)c1ccnc(OC2CN(c3c4c(nc5ccnn35)CCNCC4)C2)n1	Condition not met
O=C(N[C@H]1C[C@@H]1c1ccccc1)C1CN(c2c3c(nc4ccnn24)CCNCC3)C1	Condition not met
CN(CCc1cccc(C(F)(F)F)c1)C(=O)C1CN(c2c3c(nc4ccnn24)CCNCC3)C1	Condition met
CN1CCc2nc3ccnn3c(N3CC(C(=O)N4CCN(C(=O)C5CCCCC5)CC4)C3)c2CC1	Condition met
O=C(C1CN(c2c3c(nc4ccnn24)CCNCC3)C1)N(Cc1ccccc1)Cc1ccc(F)cc1	Condition met
Clc1ccccc1OC1CCN(c2c3c(nc4ccnn24)CCNCC3)CC1	Condition not met
CCCC1CCN(C(=O)C2CN(c3c4c(nc5ccnn35)CCNCC4)C2)CC1	Condition met
N#CC1CCN(C(=O)C2CN(c3c4c(nc5ccnn35)CCNCC4)C2)C1 (centres unmarked)	Condition met
c1ccc2c(c1)nc(C1CN(c3c4c(nc5ccnn35)CCNCC4)C1)n2C1CCCC1	Condition met
CC1CC(C)CC(N(C)C(=O)C2CN(c3c4c(nc5ccnn35)CCNCC4)C2)C1 (centres unmarked)	Condition not met
CN(C(=O)C1CCCN(c2c3c(nc4ccnn24)CCNCC3)C1)c1ccccc1 (centres unmarked)	Condition not met
Clc1ccncc1OC1CN(c2c3c(nc4ccnn24)CCNCC3)C1	Condition met
CC(CC1CCCCC1)NC(=O)C1CN(c2c3c(nc4ccnn24)CCNCC3)C1 (centres unmarked)	Condition met
O=C(C1CN(c2c3c(nc4ccnn24)CCNCC3)C1)N1CCC(OCc2ccccc2)CC1	Condition met
CC1(C(=O)N2CCC3(CCOC3)CC2)CN(c2c3c(nc4ccnn24)CCNCC3)C1	Condition not met

====

molecular target: human 5-HT2C receptor (Homo sapiens, UniProt P28335, I156V/I160V/N158S); assay: cell-based
assayMetric: EC50 (nM)

compound	assayMetric	val
Cc1cc(C#N)cc(C)c1OC1CN(c2c3c(nc4ccnn24)CCNCC3)C1	EC50	20
O=C(C1CN(c2c3c(nc4ccnn24)CCNCC3)C1)N1CCN(c2ccc(F)cc2)CC1	EC50	8
O=C(C1CN(c2c3c(nc4ccnn24)CCNCC3)C1)N1CCC(Oc2ccc(F)c(F)c2)CC1	EC50	91
CN1CCc2nc3ccnn3c(N3CC(C(=O)N4CCN(C)C(=O)C4)C3)c2CC1	EC50	257
CN(C)CCNC(=O)C1CN(c2c3c(nc4ccnn24)CCNCC3)C1	EC50	29
Brc1cnn2c(N3CCC3)c3c(nc12)CCNCC3	EC50	4
O=C(NCc1ccccc1)C1CCCN(c2c3c(nc4ccnn24)CCNCC3)C1 (stereo not shown)	EC50	1410
